Ref: patent US20250109135A1

# TEST_SYSTEM: recombinant human Caspase-1 (Homo sapiens, UniProt P29466)
# Construct: purchased Enzo life science
# Sequence (P29466 120-297 limits assumed): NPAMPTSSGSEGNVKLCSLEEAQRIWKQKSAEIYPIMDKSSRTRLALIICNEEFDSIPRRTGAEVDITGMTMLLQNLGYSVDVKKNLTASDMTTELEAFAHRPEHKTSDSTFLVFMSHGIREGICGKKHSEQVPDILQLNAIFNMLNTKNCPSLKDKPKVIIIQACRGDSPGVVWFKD
# Sequence (P29466 317-404 limits assumed): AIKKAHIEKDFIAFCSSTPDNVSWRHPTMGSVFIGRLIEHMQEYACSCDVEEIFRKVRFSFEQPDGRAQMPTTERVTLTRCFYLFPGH
# ASSAY_PROCEDURE: Caspase-1 inhibitory activity, fluorescent substrate Ac-YVAD-AFC
# Type: biochemical
# APPLIED_CONDITIONS: pH 8; 1 unit recombinant human Caspase-1, 50 μM Ac-YVAD-AFC; read-out: kobs/[I] Caspase-1
REPORTED_ENDPOINT: kinact/KI

[
  {
    "COMPOUND": "CCC(C(=O)NC(CC(=O)O)C(=O)CF)N1Cc2ccc(-c3ccsc3)cc2C1=O (stereo not drawn) [Compound 28]",
    "TEST_SYSTEM": "recombinant human Caspase-1 (Homo sapiens, UniProt P29466)",
    "MEAS_VALUE": "0.0167 to 0.167 M⁻¹ s⁻¹"
  },
  {
    "COMPOUND": "CCC(C(=O)NC(CC(=O)O)C(=O)CF)N1Cc2ccc(-c3ccc4c(c3)OCCO4)cc2C1=O (stereo not drawn) [Compound 27]",
    "TEST_SYSTEM": "recombinant human Caspase-1 (Homo sapiens, UniProt P29466)",
    "MEAS_VALUE": "0.0167 to 0.167 M⁻¹ s⁻¹"
  },
  {
    "COMPOUND": "CCC(C(=O)NC(CC(=O)O)C(=O)CF)N1Cc2ccc(-c3cncc4ccccc34)cc2C1=O (stereo not drawn) [Compound 29]",
    "TEST_SYSTEM": "recombinant human Caspase-1 (Homo sapiens, UniProt P29466)",
    "MEAS_VALUE": "0.0167 to 0.167 M⁻¹ s⁻¹"
  },
  {
    "COMPOUND": "CCC(C(=O)NC(CC(=O)O)C(=O)CF)N1Cc2ccc(-c3cccnc3)cc2C1=O (stereo not drawn) [Compound 4]",
    "TEST_SYSTEM": "recombinant human Caspase-1 (Homo sapiens, UniProt P29466)",
    "MEAS_VALUE": "0.0167 to 0.167 M⁻¹ s⁻¹"
  },
  {
    "COMPOUND": "C[C@@H](C(=O)NC(CC(=O)O)C(=O)CF)N1Cc2ccc(-c3ccc4c(c3)OCCO4)cc2C1=O (stereo partly drawn) [Compound 48]",
    "TEST_SYSTEM": "recombinant human Caspase-1 (Homo sapiens, UniProt P29466)",
    "MEAS_VALUE": "< 0.0167 M⁻¹ s⁻¹"
  },
  {
    "COMPOUND": "CCC(C(=O)NC(CC(=O)O)C(=O)CF)N1Cc2ccc(-c3ccc4scnc4c3)cc2C1=O (stereo not drawn) [Compound 32]",
    "TEST_SYSTEM": "recombinant human Caspase-1 (Homo sapiens, UniProt P29466)",
    "MEAS_VALUE": "0.0167 to 0.167 M⁻¹ s⁻¹"
  },
  {
    "COMPOUND": "CC[C@@H](C(=O)N[C@@H](CC(=O)O)C(=O)COc1c(F)c(F)cc(F)c1F)N1Cc2ccc(-c3ccc4c(c3)OCCO4)cc2C1=O [Compound 51]",
    "TEST_SYSTEM": "recombinant human Caspase-1 (Homo sapiens, UniProt P29466)",
    "MEAS_VALUE": "0.167 to 0.333 M⁻¹ s⁻¹"
  },
  {
    "COMPOUND": "CC[C@@H](C(=O)N[C@@H](CC(=O)O)C(=O)COc1c(F)c(F)cc(F)c1F)N1Cc2ccc(-c3coc4ccccc34)cc2C1=O [Compound 50]",
    "TEST_SYSTEM": "recombinant human Caspase-1 (Homo sapiens, UniProt P29466)",
    "MEAS_VALUE": "0.167 to 0.333 M⁻¹ s⁻¹"
  },
  {
    "COMPOUND": "CCC(C(=O)NC(CC(=O)O)C(=O)CF)N1Cc2ccc(Br)cc2C1=O (stereo not drawn) [Compound 9]",
    "TEST_SYSTEM": "recombinant human Caspase-1 (Homo sapiens, UniProt P29466)",
    "MEAS_VALUE": "0.0167 to 0.167 M⁻¹ s⁻¹"
  },
  {
    "COMPOUND": "CCC(C(=O)NC(CC(=O)O)C(=O)CF)N1Cc2ccc(-c3cnn4ccccc34)cc2C1=O (stereo not drawn) [Compound 33]",
    "TEST_SYSTEM": "recombinant human Caspase-1 (Homo sapiens, UniProt P29466)",
    "MEAS_VALUE": "0.0167 to 0.167 M⁻¹ s⁻¹"
  },
  {
    "COMPOUND": "CCC(C(=O)NC(CC(=O)O)C(=O)CF)N1Cc2ccc(-c3ccnc(N)c3)cc2C1=O (stereo not drawn) [Compound 23]",
    "TEST_SYSTEM": "recombinant human Caspase-1 (Homo sapiens, UniProt P29466)",
    "MEAS_VALUE": "0.0167 to 0.167 M⁻¹ s⁻¹"
  },
  {
    "COMPOUND": "CCC(C(=O)NC(CC(=O)O)C(=O)CF)N1Cc2ccc(-c3ccc(C(F)(F)F)cc3)cc2C1=O (stereo not drawn) [Compound 14]",
    "TEST_SYSTEM": "recombinant human Caspase-1 (Homo sapiens, UniProt P29466)",
    "MEAS_VALUE": "0.0167 to 0.167 M⁻¹ s⁻¹"
  }
]
